Below: a set of entries, each annotated with reported % specific activity values.
Target: (MOUSE)NAT2_R127L (Mus musculus, UniProt P50295, R127L)
Construct: made in house
Test: Substrate specific N-acetylation profile
Assay type: biochemical
Conditions: (MOUSE)NAT2 R127L; substrate 500 μM; relative to substrate with highest specific activity (100%); mean of 3 ± SD
assay-readout: % specific activity values (%)

compound_smiles=Nc1ccc(Br)cc1 assay_readout="% specific activity values" number=81
compound_smiles=Cc1cc(C)nc(NS(=O)(=O)c2ccc(N)cc2)n1 assay_readout="% specific activity values" number=3
compound_smiles=Nc1ccc(I)cc1 assay_readout="% specific activity values" number=74

----------
Target: (MOUSE)NAT2_F125S (Mus musculus, UniProt P50295, F125S)
Construct: His tag (only implied by Ni-NTA purification) (cleaved yes)
Test: Inhibition of NAT activity (AcCoA hydrolysis rate)
Details: AcCoA 400 μM, substrate 5AS, 5% DMSO
assay-readout: IC50 (µM)

compound_smiles=Cc1cc(C)cc(NC2=C(NS(=O)(=O)c3ccccc3)C(=O)c3ccccc3C2=O)c1 number=68.7

----------
Below: a set of entries, each annotated with reported % specific activity values.
Molecular target: (MOUSE)NAT2_R127G (Mus musculus, UniProt P50295, R127G)
Construct: made in house
Sequence (P50295 1-290 R127G): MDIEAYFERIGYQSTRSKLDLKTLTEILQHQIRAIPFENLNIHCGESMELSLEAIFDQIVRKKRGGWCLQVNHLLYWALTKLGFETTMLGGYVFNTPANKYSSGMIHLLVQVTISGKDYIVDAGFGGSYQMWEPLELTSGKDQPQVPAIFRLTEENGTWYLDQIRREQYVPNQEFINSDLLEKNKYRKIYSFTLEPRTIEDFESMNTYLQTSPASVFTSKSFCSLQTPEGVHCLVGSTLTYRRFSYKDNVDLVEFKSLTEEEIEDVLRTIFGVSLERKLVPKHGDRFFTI
Experiment: Substrate specific N-acetylation profile
Format: biochemical
Conditions: (MOUSE)NAT2 R127G; substrate 500 μM; relative to substrate with highest specific activity (100%); mean of 3 ± SD
assay-readout: % specific activity values (%)

compound="NNc1nncc2ccccc12 [HDZ, hydralazine]" assay_readout="% specific activity values" number=100
compound=Nc1ccc(Cl)cc1 assay_readout="% specific activity values" number=54
compound=COc1ccc(N)cc1OC assay_readout="% specific activity values" number=66

----------
Biological target: (MOUSE)NAT1*1 (Mus musculus, UniProt P50294)
Construct: The open reading frame of (MOUSE)Nat1*1 [32] was subcloned; hexa-His (N, cleaved yes); made in house; host or cells: Escherichia coli BL21(DE3)CodonPlus-RIL
Sequence (P50294 1-290): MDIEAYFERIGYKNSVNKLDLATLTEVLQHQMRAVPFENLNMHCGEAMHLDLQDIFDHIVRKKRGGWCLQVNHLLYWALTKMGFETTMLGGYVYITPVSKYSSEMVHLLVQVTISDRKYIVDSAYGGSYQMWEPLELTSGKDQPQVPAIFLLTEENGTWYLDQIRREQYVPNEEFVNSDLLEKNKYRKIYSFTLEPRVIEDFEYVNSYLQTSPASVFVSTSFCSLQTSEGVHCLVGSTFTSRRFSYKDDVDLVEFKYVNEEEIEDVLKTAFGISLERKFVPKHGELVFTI
Test: Substrate specific N-acetylation profile
Type: biochemical
Details: substrate 500 μM, relative to substrate with highest specific activity (100%), mean of 3 ± SD
Below: a set of entries, each annotated with reported % specific activity values.
assay-readout: % specific activity values

compound=Nc1ccc(Br)cc1 result="28 ± 6%"
compound="Nc1ccc(C(=O)O)c(O)c1 [4AS, 4-aminosalicylate]" result="88 ± 6%"
compound=COc1ccc(N)cc1OC result="28 ± 6%"
